Hey, just so you know, these numbers are from patent US20040147494A1.

- system_name: 11 β-HSD type 1 (Rattus norvegicus, UniProt P16232)
- Construct: Both the kidneys and livers were homogenised on ice in PBS- sucrose buffer; tissue Harlan Olac, Bicester, Oxon, UK (rats); host or cells: rat liver homogenate supernatant (Wistar rat)
- Sequence (P16232 whole entry): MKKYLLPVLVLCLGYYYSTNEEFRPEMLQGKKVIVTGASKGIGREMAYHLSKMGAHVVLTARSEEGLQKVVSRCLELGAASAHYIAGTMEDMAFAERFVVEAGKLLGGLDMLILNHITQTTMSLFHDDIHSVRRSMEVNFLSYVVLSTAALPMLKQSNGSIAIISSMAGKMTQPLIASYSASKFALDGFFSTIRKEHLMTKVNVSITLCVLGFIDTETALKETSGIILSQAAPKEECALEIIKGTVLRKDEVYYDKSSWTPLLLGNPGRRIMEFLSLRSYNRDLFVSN
- protocol_details: biochemical
- Type: biochemical
- setup_conditions: read-out: % […]→F ± SD, inhibitor 10 μM; rat liver cytosol 25 μL, 90 min, 37° C.; cortisone (E) to cortisol (F); vs control without inhibitor; means n=2; read-out: % INHIBITION E→F ± SD
Listed below: inhibition at 10 µM values for each entry.
Express it in %; write the number only.

Give the measured inhibition at 10 µM of CC1(C)[C@@H](O)CC[C@]2(C)[C@H]3C(=O)C=C4[C@@H]5C[C@@](C)(C(=O)O)CC[C@]5(C)CC[C@@]4(C)[C@]3(C)CC[C@@H]12 [STX352, reference compound] .
85.2

Further cases:
So what's the measured inhibition at 10 µM for this one? C[C@H](CCC(=O)O)[C@H]1CC[C@H]2[C@@H]3CC[C@@H]4C[C@H](O)CC[C@]4(C)[C@H]3C[C@H](O)[C@]12C [Deoxycholic acid, reference compound]
27.6

Also C[C@]12CCC(=O)C=C1CCC1C2C(O)C[C@]2(C)C(=O)CCC12 (stereo partly drawn) [11β-OH-Androstenedione, reference compound] ?
55.2

###

- system_name: 11 β-HSD type 2 (Rattus norvegicus)
- Construct: Both the kidneys and livers were homogenised on ice in PBS- sucrose buffer; tissue Harlan Olac, Bicester, Oxon, UK (rats); host or cells: rat kidney homogenate supernatant (Wistar rat)
- Sequence (P50233 whole entry): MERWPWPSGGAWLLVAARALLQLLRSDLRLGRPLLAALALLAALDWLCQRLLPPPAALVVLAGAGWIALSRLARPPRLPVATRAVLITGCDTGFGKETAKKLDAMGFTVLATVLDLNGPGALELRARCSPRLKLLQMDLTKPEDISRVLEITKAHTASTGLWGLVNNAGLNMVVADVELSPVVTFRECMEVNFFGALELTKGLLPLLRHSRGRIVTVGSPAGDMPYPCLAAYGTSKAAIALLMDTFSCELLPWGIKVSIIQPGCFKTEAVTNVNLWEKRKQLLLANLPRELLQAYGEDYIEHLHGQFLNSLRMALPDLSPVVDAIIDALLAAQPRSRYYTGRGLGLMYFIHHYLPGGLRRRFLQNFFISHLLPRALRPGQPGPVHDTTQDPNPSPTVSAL
- protocol_details: biochemical
- setup_conditions: read-out: % […]→E ± SD, inhibitor 10 μM; rat kidney cytosol 150 μL, 60 min, 37° C.; cortisol (F) to cortisone (E); vs control without inhibitor; means n=2; read-out: % INHIBITION F→E ± SD
recorded_endpoint: inhibition at 10 µM (%)
Write it as a number; the unit % goes unstated.

Given the entry CC(=O)O[C@H]1CC[C@@]2(C)C(CC[C@]3(C)[C@@H]2C(=O)C=C2[C@@H]4C[C@@](C)(C(=O)NCc5ccccc5)CC[C@]4(C)CC[C@]23C)C1(C)C (stereo partly shown) , what inhibition at 10 µM was observed with 11 β-HSD type 2 (Rattus norvegicus)?
27.3

Further cases:
Lab request: please report inhibition at 10 µM under test system 11 β-HSD type 2 (Rattus norvegicus) for CC(=O)C1CCC2C3CCC4=CC(=O)CC[C@]4(C)C3[C@H](OCc3ccccc3)C[C@]12C (stereo partly shown)
18.9

Okay, and CC1(C)C2CC[C@]3(C)C(C(=O)C=C4[C@@H]5C[C@@](C)(CO)CC[C@]5(C)CC[C@]43C)[C@@]2(C)CC[C@@H]1O (stereo partly shown) ?
100

###

Item-by-item account of melting point

Answered examples (4):
Item under review: CC(C)(C)OC(=O)[C@@]1(C)CC[C@]2(C)CC[C@]3(C)C(=CC(=O)C4[C@@]5(C)CC[C@@H](O)C(C)(C)C5CC[C@]43C)[C@@H]2C1 (some centres unmarked) . Reported melting point?
95 to 97 °C

Queued: CC(C)OC(=O)[C@@]1(C)CC[C@]2(C)CC[C@]3(C)C(=CCC4[C@@]5(C)CC[C@H](O)C(C)(C)C5CC[C@]43C)[C@@H]2C1 (some centres unmarked)
201 to 203 °C

Then what about the compound CC(=O)O[C@H]1CC[C@@]2(C)C(CC[C@]3(C)C2CC=C2[C@@H]4C[C@@](C)(C(=O)OCc5ccccc5)CC[C@]4(C)CC[C@]23C)C1(C)C (some centres unmarked) [STX 354] ?
207 to 208 °C

One more compound: CC1(C)C2CC[C@]3(C)C(CC=C4[C@@H]5C[C@@](C)(C(=O)OCc6ccccc6)CC[C@]5(C)CC[C@]43C)[C@@]2(C)CC[C@H]1O (some centres unmarked)
151 to 152 °C

Continue with the next compound.
Look at this compound and give its reported melting point. CC(C)OC(=O)[C@@]1(C)CC[C@]2(C)CC[C@]3(C)C(=CC(=O)C4[C@@]5(C)CC[C@H](O)C(C)(C)C5CC[C@]43C)[C@@H]2C1 (some centres unmarked)
271 to 273 °C (dec.)

###

inhibition at 10 µM overview
- system_name: 11 β-HSD type 2 (Rattus norvegicus)
- Construct: Both the kidneys and livers were homogenised on ice in PBS- sucrose buffer; tissue Harlan Olac, Bicester, Oxon, UK (rats); host or cells: rat kidney homogenate supernatant (Wistar rat)
- protocol_details: biochemical
- setup_conditions: read-out: % […]→E ± SD, inhibitor 10 μM; rat kidney cytosol 150 μL, 60 min, 37° C.; cortisol (F) to cortisone (E); vs control without inhibitor; means n=2; read-out: % INHIBITION F→E ± SD
Counter-ions that a name gives are not always drawn.
I only need the number, in %, no unit after it.

Observe how each entry below is paired with its result.
I'd like to know its inhibition at 10 µM. The compound in question is CC1(C(=O)O)CCC2(C)CCC3C(=CC(=O)C4C3(C)CCC3C(C)(C)C(OC(=O)CCC(=O)O)CCC34C)C2C1 (stereo not shown) [Carbenoxalone, Carbenoxalone (disodium salt), reference compound]
100

Also C[C@]12CCC(=O)C=C1CC[C@@H]1[C@@H]2[C@@H](O)C[C@@]2(C)[C@H]1CC[C@]2(O)C(=O)CO [Cortisol, reference compound] ?
54.7

Let us now turn to CO[C@@H]1C[C@]2(C)C(C(C)=O)CCC2C2CCC3=CC(=O)CC[C@]3(C)C21 (stereo partly shown)
68.2

Consider the record given below.
I would be grateful if you could share the reported inhibition at 10 µM for CCOC(=O)[C@@]1(C)CC[C@]2(C)CC[C@]3(C)C(=CC(=O)C4[C@@]5(C)CC[C@H](OCc6ccccc6)C(C)(C)C5CC[C@]43C)[C@@H]2C1 (stereo partly shown) .
58.7
